Measured combination Emax of individual entries
# System: KOPN-8 (B-Lymphoblastic Leukemia)
# assay.comment: combination Emax (second highest fraction inhibited in the dose matrix, 72 h); higher = more inhibition; extreme values may be limits of the assay

{"columns": ["compound", "combination Emax"],
 "data": [
  ["C[C@@H](c1ccc2nccn2c1)n1nnc2ncc(-c3cnn(C)c3)nc21 [Savolitinib] + CN(CC[C@H](CSC1=CC=CC=C1)NC2=C(C=C(C=C2)S(=O)(=O)NC(=O)C3=CC=C(C=C3)N4CCC(CC4)[C@H](C5=CC=CC=C5C6=CC=C(C=C6)Cl)O)S(=O)(=O)C(F)(F)F)CCO [AZD4320] (first compound max 1 µM, 7x7, partner max 1 µM)", 0.967],
  ["COc1nnc2ccc(N3CCC(c4ccc(OCCN5CCN(C)C(=O)[C@H]5C)cc4)CC3)nn12 [AZD5153] + C=CCn1c(=O)c2cnc(Nc3ccc(N4CCN(C)CC4)cc3)nc2n1-c1cccc(C(C)(C)O)n1 [AZD1775] (first compound max 1 µM, partner max 1 µM)", 1],
  ["CN(CCO)CC[C@H](CSc1ccccc1)Nc1ccc(S(=O)(=O)NC(=O)c2ccc(N3CCC([C@@H](O)c4ccccc4-c4ccc(Cl)cc4)CC3)cc2)cc1S(=O)(=O)C(F)(F)F [AZD4320] + C[C@@H](Nc1cc(F)cc(F)c1)c1cc(C(=O)N(C)C)cc2c(=O)cc(N3CCOCC3)oc12 [AZD8186] (first compound max 1 µM, 7x7, partner max 3 µM)", 1],
  ["COc1cc2c(cc1OCCCCCOc1cc3c(cc1OC)C(=O)N1C=C(C)C[C@H]1C=N3)N=C[C@@H]1CC(C)=CN1C2=O [SG3199] + O=C(c1cc(Cc2n[nH]c(=O)c3ccccc23)ccc1F)N1CCN(C(=O)C2CC2)CC1 [Olaparib] (first compound max 0.001 µM, 7x7, partner max 10 µM)", 0.719],
  ["Cc1cc2ncnn2cc1Nc1ncc2c(n1)n(C1CCOCC1)c(=O)n2C [AZD7648] + C[C@@H]1COCCN1C2=NC(=NC(=C2)C3(CC3)[S@](=N)(=O)C)C4=C5C=CNC5=NC=C4 [AZD6738] (first compound max 10 µM, 7x7, partner max 10 µM)", 0.891],
  ["CC1(C)CCC(CN2CCN(c3ccc(C(=O)NS(=O)(=O)c4ccc(NCC5CCOCC5)c([N+](=O)[O-])c4)c(Oc4cnc5[nH]ccc5c4)c3)CC2)=C(c2ccc(Cl)cc2)C1 [Venetoclax] + CCN(CCO)CCCOc1ccc2c(Nc3cc(CC(=O)Nc4cccc(F)c4)[nH]n3)ncnc2c1 [AZD2811] (first compound max 1 µM, 7x7, partner max 1 µM)", 0.974]
]}

* * *

# Bliss excess per record follows
# System: Ca-Ski (Cervical Carcinoma);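 further: after 72 h of two-drug dosing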
# assay.comment: Bliss excess, mean over the matrix (fraction); higher = more synergy

{"columns": ["compound", "Bliss excess"],
 "data": [
  ["NC1(C(=O)N[C@@H](CCO)c2ccc(Cl)cc2)CCN(c2ncnc3[nH]ccc23)CC1 [Capivasertib] + CCN(CCO)CCCOc1ccc2c(Nc3cc(CC(=O)Nc4cccc(F)c4)[nH]n3)ncnc2c1 [AZD2811] (first compound max 10 µM, 7x7, partner max 1 µM)", 0.0121],
  ["Cc1cc2ncnn2cc1Nc1ncc2c(n1)n(C1CCOCC1)c(=O)n2C [AZD7648] + C=CCn1c(=O)c2cnc(Nc3ccc(N4CCN(C)CC4)cc3)nc2n1-c1cccc(C(C)(C)O)n1 [AZD1775] (first compound max 10 µM, partner max 1 µM)", -0.0255],
  ["N#Cc1cnc(Nc2cc(NC[C@H]3CNCCO3)c(C(F)(F)F)cn2)cn1 [SRA737] + CCc1c2c(nc3ccc(O)cc13)-c1cc3c(c(=O)n1C2)COC(=O)[C@]3(O)CC [SN-38] (first compound max 10 µM, 7x7, partner max 0.3 µM)", 0.0291],
  ["NC1(C(=O)N[C@@H](CCO)c2ccc(Cl)cc2)CCN(c2ncnc3[nH]ccc23)CC1 [Capivasertib] + C[C@@H]1COCCN1C2=NC(=NC(=C2)C3(CC3)[S@](=N)(=O)C)C4=C5C=CNC5=NC=C4 [AZD6738] (first compound max 10 µM, 7x7, partner max 10 µM)", 0.0076]
]}

* * *

# System: ALL-SIL (T-Lymphoblastic Leukemia)
# assay.comment: combination Emax (second highest fraction inhibited in the dose matrix, 72 h); higher = more inhibition; extreme values may be limits of the assay

{"columns": ["compound", "assay.target", "combination Emax"],
 "data": [
  ["CC(=O)c1c(C)c2cnc(Nc3ccc(N4CCNCC4)cn3)nc2n(C2CCCC2)c1=O [Palbociclib] + Cc1c2c(nn1C)CSCc1cc(n(C)n1)CSc1cc(c3ccccc3c1)OCCCc1c(C(=O)O)n(C)c3c-2c(Cl)ccc13 [AZD5991] (first compound max 10 µM, 7x7, partner max 1 µM)", "ALL-SIL (T-Lymphoblastic Leukemia)", 0.446],
  ["CC1(C)CCC(CN2CCN(c3ccc(C(=O)NS(=O)(=O)c4ccc(NCC5CCOCC5)c([N+](=O)[O-])c4)c(Oc4cnc5[nH]ccc5c4)c3)CC2)=C(c2ccc(Cl)cc2)C1 [Venetoclax] + C[C@@H]1COCCN1C2=NC(=NC(=C2)C3(CC3)[S@](=N)(=O)C)C4=C5C=CNC5=NC=C4 [AZD6738] (first compound max 1 µM, 7x7, partner max 10 µM)", "ALL-SIL (T-Lymphoblastic Leukemia)", 1],
  ["Cn1cnc2c(F)c(Nc3ccc(Br)cc3Cl)c(C(=O)NOCCO)cc21 [Selumetinib] + C=CCn1c(=O)c2cnc(Nc3ccc(N4CCN(C)CC4)cc3)nc2n1-c1cccc(C(C)(C)O)n1 [AZD1775] (first compound max 10 µM, partner max 1 µM)", "ALL-SIL (T-Lymphoblastic Leukemia)", 0.881],
  ["COc1cccc(OCCCN)c1-c1cc(Nc2cnc(C#N)cn2)n[nH]1 [Prexasertib] + Cc1cc2ncnn2cc1Nc1ncc2c(n1)n(C1CCOCC1)c(=O)n2C [AZD7648] (first compound max 1 µM, 7x7, partner max 10 µM)", "ALL-SIL (T-Lymphoblastic Leukemia)", 0.983],
  ["CCN(CCO)CCCOc1ccc2c(Nc3cc(CC(=O)Nc4cccc(F)c4)[nH]n3)ncnc2c1 [AZD2811] + C=CCn1c(=O)c2cnc(Nc3ccc(N4CCN(C)CC4)cc3)nc2n1-c1cccc(C(C)(C)O)n1 [AZD1775] (first compound max 1 µM, partner max 1 µM)", "ALL-SIL (T-Lymphoblastic Leukemia)", 0.966],
  ["COc1cc2c(cc1OCCCCCOc1cc3c(cc1OC)C(=O)N1C=C(C)C[C@H]1C=N3)N=C[C@@H]1CC(C)=CN1C2=O [SG3199] + O=C(c1cc(Cc2n[nH]c(=O)c3ccccc23)ccc1F)N1CCN(C(=O)C2CC2)CC1 [Olaparib] (first compound max 0.001 µM, 7x7, partner max 10 µM)", "ALL-SIL (T-Lymphoblastic Leukemia)", 0.337],
  ["COc1nnc2ccc(N3CCC(c4ccc(OCCN5CCN(C)C(=O)[C@H]5C)cc4)CC3)nn12 [AZD5153] + CCN(CCO)CCCOc1ccc2c(Nc3cc(CC(=O)Nc4cccc(F)c4)[nH]n3)ncnc2c1 [AZD2811] (first compound max 1 µM, 7x7, partner max 1 µM)", "ALL-SIL (T-Lymphoblastic Leukemia)", 1]
]}

* * *

# Tested on: EFO-21 (Ovarian Carcinoma)
# assay.comment: combination Emax (second highest fraction inhibited in the dose matrix, 72 h); higher = more inhibition; extreme values may be limits of the assay
Some compounds, each annotated with its measured combination Emax.

{"columns": ["compound", "combination Emax"],
 "data": [
  ["NC1(C(=O)N[C@@H](CCO)c2ccc(Cl)cc2)CCN(c2ncnc3[nH]ccc23)CC1 [Capivasertib] + COc1nnc2ccc(N3CCC(c4ccc(OCCN5CCN(C)C(=O)[C@H]5C)cc4)CC3)nn12 [AZD5153] (first compound max 10 µM, 7x7, partner max 1 µM)", 0.321],
  ["NC1(C(=O)N[C@@H](CCO)c2ccc(Cl)cc2)CCN(c2ncnc3[nH]ccc23)CC1 [Capivasertib] + Cn1cnc2c(F)c(Nc3ccc(Br)cc3Cl)c(C(=O)NOCCO)cc21 [Selumetinib] (first compound max 10 µM, 7x7, partner max 10 µM)", 0.335],
  ["CC1(C)CCC(CN2CCN(c3ccc(C(=O)NS(=O)(=O)c4ccc(NCC5CCOCC5)c([N+](=O)[O-])c4)c(Oc4cnc5[nH]ccc5c4)c3)CC2)=C(c2ccc(Cl)cc2)C1 [Venetoclax] + C[C@@H](Nc1cc(F)cc(F)c1)c1cc(C(=O)N(C)C)cc2c(=O)cc(N3CCOCC3)oc12 [AZD8186] (first compound max 1 µM, 7x7, partner max 3 µM)", 0.248]
]}

* * *

# Test system: HCC1937 (Breast Carcinoma)
# assay.comment: combination Emax (second highest fraction inhibited in the dose matrix, 72 h); higher = more inhibition; extreme values may be limits of the assay
endpoint: combination Emax

{"columns": ["compound", "assay.target", "endpoint", "numeric.value"],
 "data": [
  ["CC1(C)CCC(CN2CCN(c3ccc(C(=O)NS(=O)(=O)c4ccc(NCC5CCOCC5)c([N+](=O)[O-])c4)c(Oc4cnc5[nH]ccc5c4)c3)CC2)=C(c2ccc(Cl)cc2)C1 [Venetoclax] + C1CN(CCC1(C(=O)N[C@@H](CCO)C2=CC=C(C=C2)Cl)N)C3=NC=NC4=C3C=CN4 [Capivasertib] (first compound max 1 µM, 7x7, partner max 3 µM)", "HCC1937 (Breast Carcinoma)", "combination Emax", 0.373],
  ["NC1(C(=O)N[C@@H](CCO)c2ccc(Cl)cc2)CCN(c2ncnc3[nH]ccc23)CC1 [Capivasertib] + Cn1cnc2c(F)c(Nc3ccc(Br)cc3Cl)c(C(=O)NOCCO)cc21 [Selumetinib] (first compound max 10 µM, 7x7, partner max 10 µM)", "HCC1937 (Breast Carcinoma)", "combination Emax", 0.527],
  ["Cn1cnc2c(F)c(Nc3ccc(Br)cc3Cl)c(C(=O)NOCCO)cc21 [Selumetinib] + CCN(CCO)CCCOc1ccc2c(Nc3cc(CC(=O)Nc4cccc(F)c4)[nH]n3)ncnc2c1 [AZD2811] (first compound max 10 µM, 7x7, partner max 1 µM)", "HCC1937 (Breast Carcinoma)", "combination Emax", 0.314]
]}
